meta.source: ChEMBL document CHEMBL4834420

- test protocol: Plasma clearance in C57BL/6 mouse at 1 mg/kg, iv or 3 mg/kg, po
- Assay type: ADME, organism-based
assay metric: clearance (mL/min/kg)
Just the number please, in mL/min/kg, no unit attached.

Q: Please give measured clearance of the following entry: `CCn1c(-c2cnc(C)nc2)nc2c(N[C@H]3CCN(C(=O)C4CC4)C3)ncnc21`
Ans: 45

----------
- target under test: Cytochrome P450 2C19 (Homo sapiens, UniProt P33261)
- Sequence (P33261 whole entry): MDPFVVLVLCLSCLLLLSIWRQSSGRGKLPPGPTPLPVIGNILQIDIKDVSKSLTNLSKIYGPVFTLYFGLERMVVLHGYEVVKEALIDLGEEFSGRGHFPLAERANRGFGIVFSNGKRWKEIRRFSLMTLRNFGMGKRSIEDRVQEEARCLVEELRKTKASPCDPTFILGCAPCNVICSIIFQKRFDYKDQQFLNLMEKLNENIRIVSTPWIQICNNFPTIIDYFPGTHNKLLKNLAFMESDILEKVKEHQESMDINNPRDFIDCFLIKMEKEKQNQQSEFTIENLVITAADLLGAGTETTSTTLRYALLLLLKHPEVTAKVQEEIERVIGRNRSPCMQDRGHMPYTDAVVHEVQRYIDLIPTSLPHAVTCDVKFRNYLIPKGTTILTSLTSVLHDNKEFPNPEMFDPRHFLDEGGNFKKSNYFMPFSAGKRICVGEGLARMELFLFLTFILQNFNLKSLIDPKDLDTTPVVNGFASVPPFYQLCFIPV
pIC50: −log10 of the molar value.
assay metric: pIC50

Q: For Cytochrome P450 2C19 (Homo sapiens, UniProt P33261), give pIC50 of the listed compound: `CCn1c(-c2cnc(C)nc2)nc2c(N[C@H]3CCN(C(=O)C4CC4)C3)ncnc21`
Ans: < 4.30

----------
- target under test: Phosphatidylinositol 4,5-bisphosphate 3-kinase catalytic subunit delta isoform (Homo sapiens)
- Sequence (O00329 whole entry, canonical isoform): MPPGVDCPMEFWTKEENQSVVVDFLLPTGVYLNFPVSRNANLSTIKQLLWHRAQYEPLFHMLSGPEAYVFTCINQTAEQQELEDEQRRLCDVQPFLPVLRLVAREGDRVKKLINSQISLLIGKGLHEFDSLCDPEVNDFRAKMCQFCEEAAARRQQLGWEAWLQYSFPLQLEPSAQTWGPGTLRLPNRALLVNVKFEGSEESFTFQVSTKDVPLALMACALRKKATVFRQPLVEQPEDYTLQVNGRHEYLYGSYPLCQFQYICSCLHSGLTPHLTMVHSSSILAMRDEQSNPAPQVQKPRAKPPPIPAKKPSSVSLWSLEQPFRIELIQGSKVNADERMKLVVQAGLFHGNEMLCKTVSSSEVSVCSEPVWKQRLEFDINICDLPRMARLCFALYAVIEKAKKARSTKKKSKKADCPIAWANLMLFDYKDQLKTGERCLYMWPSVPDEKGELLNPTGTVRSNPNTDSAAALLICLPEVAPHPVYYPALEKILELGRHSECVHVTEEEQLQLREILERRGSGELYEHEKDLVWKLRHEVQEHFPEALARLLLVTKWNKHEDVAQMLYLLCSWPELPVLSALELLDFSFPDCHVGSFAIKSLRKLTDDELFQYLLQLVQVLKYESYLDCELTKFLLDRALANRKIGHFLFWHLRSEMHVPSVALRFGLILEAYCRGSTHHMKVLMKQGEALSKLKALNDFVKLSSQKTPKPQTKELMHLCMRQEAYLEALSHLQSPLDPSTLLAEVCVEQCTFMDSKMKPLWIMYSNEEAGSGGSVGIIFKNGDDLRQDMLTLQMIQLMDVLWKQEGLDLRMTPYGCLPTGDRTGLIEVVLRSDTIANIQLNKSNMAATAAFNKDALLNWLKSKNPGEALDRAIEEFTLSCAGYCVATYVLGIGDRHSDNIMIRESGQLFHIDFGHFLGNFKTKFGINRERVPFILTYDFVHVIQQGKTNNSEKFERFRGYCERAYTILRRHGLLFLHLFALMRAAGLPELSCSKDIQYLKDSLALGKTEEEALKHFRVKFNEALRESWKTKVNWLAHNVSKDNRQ
- test protocol: Inhibition of PI3Kdelta in human Ramos cells assessed as reduction in anti-IgM-antibody-induced phosphorylation of AKT at Ser473 residue preincubated for 20 mins followed by anti-IgM antibody stimulation and measured after 30 mins by alphascreen assay
- Type: cell-based
Listed compounds paired with reported pIC50
Formally, pIC50 is defined as -log10 of the concentration c, with c in mol/L.

Worked examples follow.
CCn1c(-c2cnc(C)nc2)nc2c(N[C@H]3CCN(C(=O)N4CC(OC)C4)C3)ncnc21 = 7.17
CCn1c(-c2ccc(C(F)(F)F)nc2)nc2c(O[C@H]3CCN(C(=O)c4cocn4)C3)ncnc21 = 6.52
CCn1c(-c2ccc(C(F)(F)F)nc2)nc2c(O[C@H]3CCN(C(=O)N4CC(OC)C4)C3)ncnc21 = 7.37
CCn1c(-c2cnc(C)nc2)nc2c(N[C@H]3CCN(C(=O)C4CCOCC4)C3)ncnc21 = 7.48
CCC(=O)N1CC[C@H](Nc2ncnc3c2nc(-c2cnn(CC)c2C)n3CC(F)(F)F)C1 = 6.48
CCn1c(-c2cnc(C)nc2)nc2c(O[C@H]3CCN(C(=O)c4cocn4)C3)ncnc21 = 7.03

Q: Please give measured pIC50 of the following entry: `CCC(=O)N1CC[C@H](Nc2ncnc3c2nc(-c2cnc(C(C)(C)C)s2)n3C)C1`
Ans: 8.40

Q: Please give measured pIC50 of the following entry: `CCC(=O)N1CC[C@H](Nc2ncnc3c2nc(-c2cnn(CC)c2C)n3CC)C1`
Ans: 8.70

Q: Please give measured pIC50 of the following entry: `CCC(=O)N1CC[C@H](Nc2ncnc3c2nc(-c2ccc(C(F)(F)F)nc2)n3C)C1`
Ans: 7.18

----------
- test protocol: Intrinsic clearance in Wistar Han rat at 0.05 mg/kg, iv or 1 mg/kg, po
- Type: ADME, organism-based
- condition: in vivo
Record yes whenever CL is at 2 L/h/kg or higher; record no when lower.

CCn1c(-c2cnc(C)nc2)nc2c(N[C@H]3CCN(C(=O)C4CCOC4)C3)ncnc21 (stereo not given in full) = yes
CCn1c(-c2cnc(C)nc2)nc2c(N[C@H]3CCN(C(=O)C4CC(F)(F)C4)C3)ncnc21 = yes
CCC(=O)N1CC[C@H](Oc2ncnc3c2nc(-c2cnc(C)nc2)n3CC)C1 = no
CCn1c(-c2cnc(C)nc2)nc2c(O[C@H]3CCN(C(=O)C4CC(F)(F)C4)C3)ncnc21 = no

Q: For this molecule, is measured CL 2 L/h/kg or higher? `CCn1c(-c2cnc(C)nc2)nc2c(N[C@H]3CCN(C(=O)c4cocn4)C3)ncnc21`
Ans: yes
